Experiment: Novel Modifiers of Survival Motor Neuron (SMN) Protein: Gene Identification via Genome-wide siRNA Screen;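 further: luminescence tracks full-length SMN protein made from the SMN2 reporter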
Conditions: HEK293T SMN2-luciferase reporter, siRNA knockdown, 72 h; actives lie on both sides
The whole screen tested about 31,000 sequences, of which about 1,400 (4.5%) were called active.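 How the source made its calls: active means median seed-adjusted z-score above 1 or below -1; inactive means the rest.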 The full list was thinned out, with actives kept by preference.
Could you please pick one outcome from this set? active, inactive

CAAUGUCCCAAGAUAAAGATT against PRPSAP1: inactive
GCUGCUCACUGUUUCAUGATT against PRSS36: inactive
CCUUUACUACGUGUGCACATT against POLR2I: active
CGAUCACUUCCUACAGUCUTT against RGR: inactive
AAGACGAACUUGAGCUGGATT against MAPK8IP1: inactive
GCGAGCCGCUUAUGUGGAATT against TCF21: inactive
GCACUUUUCGAGGAGGAGATT against SLC12A7: inactive
GUACUUCCAUAGACAGGAATT against CECR1: inactive
CCAACAAACUCACCAUACATT against KREMEN1: inactive
AGAUACUGGUAUUGCUCGATT against SNRPB: active

Prompt: Dear all, I need the recorded test outcome for AACGCACUCUUCUACGUCATT against NTSR1 , thank you.
Completion: active

----------
Reported median seed-adjusted z-score by item:
Experiment: Novel Modifiers of Survival Motor Neuron (SMN) Protein: Gene Identification via Genome-wide siRNA Screen;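 further: luminescence tracks full-length SMN protein made from the SMN2 reporter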
Settings: HEK293T SMN2-luciferase reporter, siRNA knockdown, 72 h; actives lie on both sides
The campaign covered roughly 31,000 sequences. About 1,400 (4.5%) were called active. The full list was thinned out, with actives kept by preference.
Write the number on its own, no unit after it.

Reference set (3 entries):
GCAGAAGGCUCAGUAGCUATT against NAT5: -0.0124
CACCGUCUGAGAUAAUAGATT against LST-3TM12: -0.109
GCUGAUACCUUCUACCGUATT against GDPD2: -0.0868

Short answer for CCACUUUAAUAAACGUGCUTT against TIMM10 : median seed-adjusted z-score was 0.0738

get_value(item= CGUUCUAUCAACAAACUCATT against EIF2S1 , readout=median seed-adjusted z-score) returns -0.175

----------
Assay: Novel Modifiers of Survival Motor Neuron (SMN) Protein: Gene Identification via Genome-wide siRNA Screen;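 further: luminescence tracks full-length SMN protein made from the SMN2 reporter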
Conditions: HEK293T SMN2-luciferase reporter, siRNA knockdown, 72 h; actives lie on both sides
Screen size: about 31,000 sequences; about 1,400 (4.5%) were called active.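 The calls were made as follows: active = median seed-adjusted z-score above 1 or below -1; inactive = the rest.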 This excerpt belongs to a sample that is enriched for actives.
# output must be one of y = active, n = inactive

Here are 3 sequences together with their reported answers.
GUAUCGCUGUUUCUACGGUTT against LILRA1: n
AGAGCAAAACAGUCCGAUATT against PCDH8: y
GCAUUUCUUGGGUUGGUGATT against GABPA: y

Prompt: Could you check what this test reported for GAAUCACCAGCUAAACUAUTT against STARD6 ?
Completion: n

Prompt: // outcome(item) with item = AAAUCCUUGGGUCAACAUUTT against NOX1
Completion: n

Prompt: Test call for this sequence, please: GGAAGUCUCUUGUCUGCAATT against RNASEL
Completion: n

Prompt: Fill in: this test's call for GCAUUUCACCAUUCAAACATT against PCSK9 is ___
Completion: n

Prompt: Hi, do you know how CGCUCAUGGACUUCGCCUATT against ZBTB7A came out in this test?
Completion: n

Prompt: Hi, sorry to bother you, what did the test record for GUCCGUUAACUAUCUGUUATT against GNAI3 ?
Completion: n

These entries and their values trace back to PubChem BioAssay AID1347426.
